Values from the supplement of paper PMC7877785

Record form. Attribute: self-splicing fitness (ln). Fill in for each entry.
- test.details: self-splicing fitness, log relative to wild type (ln ratio); higher = more splicing; Tetrahymena group I intron in knt gene, E. coli kanamycin selection, DiMSum; sequences stand for … in CUCUCU…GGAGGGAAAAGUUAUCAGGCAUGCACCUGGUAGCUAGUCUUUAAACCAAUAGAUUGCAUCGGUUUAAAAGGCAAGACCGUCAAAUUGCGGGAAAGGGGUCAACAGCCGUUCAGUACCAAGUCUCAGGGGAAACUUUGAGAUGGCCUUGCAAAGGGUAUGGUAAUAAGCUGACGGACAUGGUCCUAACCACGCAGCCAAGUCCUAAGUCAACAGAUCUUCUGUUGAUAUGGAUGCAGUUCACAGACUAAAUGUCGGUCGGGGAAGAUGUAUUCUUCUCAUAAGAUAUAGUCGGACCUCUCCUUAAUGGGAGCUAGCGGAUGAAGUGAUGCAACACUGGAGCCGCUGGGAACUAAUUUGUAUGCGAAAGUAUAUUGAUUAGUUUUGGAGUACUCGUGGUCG;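 note: selection with 25 µg/mL kanamycin versus none on LB agar overnight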
- run.parameters: 37 °C
One number for each entry.

- residue.string: "UCUGAGCAAUAUUACGGGGG"
  self-splicing fitness (ln): -2.49
- residue.string: "CUAUAGCAAUAUUACGGUAU"
  self-splicing fitness (ln): -3.22
- residue.string: "GAUCAGCAAUAUUACGGUUC"
  self-splicing fitness (ln): -0.31
- residue.string: "ACAGAGCAAUAUUACGUUGU"
  self-splicing fitness (ln): -2.34
- residue.string: "GAGAAGCAAUAUUACGUAUC"
  self-splicing fitness (ln): -3.21
- residue.string: "GCAUAGCAAUAUUACGCACA"
  self-splicing fitness (ln): 0.000212

Give me self-splicing fitness (ln) for each of these sequences, listed below.
1. AAAUAGCAAUAUUACGUCUA
2. UCGCAGCAAUAUUACGGUAC
3. GCUUAGCAAUAUUACGAUGC
4. CAUAAGCAAUAUUACGUAGA
5. GGCGAGCAAUAUUACGGGUG
6. ACGUAGCAAUAUUACGGUAC
7. GAGAAGCAAUAUUACGAUGC
8. CGGGAGCAAUAUUACGCGCC

[0.205, -2.21, -0.976, -1.97, -1.96, -2.57, -0.435, -1.51]

Provide reported self-splicing fitness (ln) for each item, in the same order as listed.
1. GAUUAGCAAUAUUACGCCGC
2. GCGCAGCAAUAUUACGCAAG

1: -2.28; 2: -2.52

###

- test.details: self-splicing fitness, log relative to wild type (ln ratio); higher = more splicing; Tetrahymena group I intron in knt gene, E. coli kanamycin selection, DiMSum; sequences stand for … in CUCUCU…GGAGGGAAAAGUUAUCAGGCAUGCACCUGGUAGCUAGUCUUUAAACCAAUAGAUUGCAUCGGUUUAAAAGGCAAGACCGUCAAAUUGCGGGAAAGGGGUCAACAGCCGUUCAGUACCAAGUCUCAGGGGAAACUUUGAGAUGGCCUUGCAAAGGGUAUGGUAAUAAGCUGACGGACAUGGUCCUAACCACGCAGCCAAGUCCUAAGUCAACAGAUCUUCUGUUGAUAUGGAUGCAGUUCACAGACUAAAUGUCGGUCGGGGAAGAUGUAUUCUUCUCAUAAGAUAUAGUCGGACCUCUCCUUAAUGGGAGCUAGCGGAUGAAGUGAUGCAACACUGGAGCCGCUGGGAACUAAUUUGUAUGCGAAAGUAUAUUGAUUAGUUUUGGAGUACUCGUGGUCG
- run.parameters: 30 °C
// classify(record): look up self-splicing fitness (ln) in ranges low interval (below -3), middle interval (-3 to below -1), high interval (-1 or more)

- residue.string: "CUGGAGCAAUAUUACGAUAG"
  class: "middle interval"

Pick a category. Item: `CGAGAGCAAUAUUACGCCAA`
middle interval

Which class is correct for the following sequence? `UAGUAGCAAUAUUACGCCGU`
middle interval
